target: Tyrosine-protein kinase Lck (Homo sapiens, UniProt P06239)
Sequence (P06239 whole entry): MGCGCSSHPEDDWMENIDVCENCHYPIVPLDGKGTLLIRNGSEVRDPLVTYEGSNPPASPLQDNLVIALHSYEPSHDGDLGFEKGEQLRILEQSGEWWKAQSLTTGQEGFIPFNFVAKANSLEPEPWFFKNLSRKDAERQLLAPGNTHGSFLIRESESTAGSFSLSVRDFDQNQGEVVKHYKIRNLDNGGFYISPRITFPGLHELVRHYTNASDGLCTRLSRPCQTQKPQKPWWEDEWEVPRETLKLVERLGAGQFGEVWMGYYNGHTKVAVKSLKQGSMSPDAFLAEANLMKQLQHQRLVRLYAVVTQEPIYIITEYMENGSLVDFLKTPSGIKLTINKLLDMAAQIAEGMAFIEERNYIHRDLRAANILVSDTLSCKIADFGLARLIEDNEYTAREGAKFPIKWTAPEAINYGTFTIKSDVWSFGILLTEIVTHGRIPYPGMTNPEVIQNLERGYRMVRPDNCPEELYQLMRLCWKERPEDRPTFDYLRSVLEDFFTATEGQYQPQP
The reader will find reported log10 IC50 values listed item by item below.
Heads up: the numbers are on a log10 scale; they represent IC50 in µM.

Would you please look over these solved cases?
MOLECULE	SYSTEM_UNDER_TEST	log10 IC50
CC(=O)N[C@@H](Cc1ccc(OP(=O)(O)O)cc1)C(=O)N[C@H]1CCC(=O)N2CCC[C@@H](C(=O)NCc3ccccc3)N2C1=O	Tyrosine-protein kinase Lck (Homo sapiens, UniProt P06239)	0.18
CCCCCNC(=O)[C@@H]1CCCN2C(=O)CC[C@H](NC(=O)[C@H](Cc3ccc(OP(=O)(O)O)cc3)NC(C)=O)C(=O)N12	Tyrosine-protein kinase Lck (Homo sapiens, UniProt P06239)	0.26

Below: the item to evaluate.
Requested field: log10 IC50. Item: CC(=O)N[C@@H](Cc1ccc(OP(=O)(O)O)cc1)C(=O)N[C@H]1CCC(=O)N2CCC[C@@H](C(=O)NC3CC(C(=O)O)c4ccccc43)N2C1=O (stereo in doubt; 35)
0.86

---

A set of compounds tested on Tyrosine-protein kinase Lck (Homo sapiens, UniProt P06239), with measured log10(IC50):
Non-standard residues stand in square brackets, D forms with d. Residues, ends and D or L forms follow the SMILES beside them. pY = N[C@@H](Cc1ccc(OP(=O)(O)O)cc1)C(=O)O
Heads up: the numbers are on a log10 scale; they represent IC50 in µM.

Would you please look over these solved cases?
COMPOUND	log10(IC50)
CC(=O)N[C@@H](Cc1ccc(OP(=O)(O)O)cc1)C(=O)N[C@H]1CCC(=O)N2CCC[C@@H](C(=O)N[C@H]3C[C@@H](C(=O)O)c4ccccc43)N2C1=O	0.45
CNC(=O)[C@H](CCC(=O)O)NC(=O)[C@H](Cc1ccc(OP(=O)(O)O)cc1)NC(C)=O (Ac-[pY]-Glu-NHMe)	2.54
CC[C@H](C)[C@H](NC(=O)[C@@H]1CCCN1C(=O)[C@@H](NC(=O)[C@H](CCC(=O)O)NC(=O)[C@H](CCC(=O)O)NC(=O)[C@H](Cc1ccc(OP(=O)(O)O)cc1)NC(=O)[C@H](CCC(N)=O)NC(=O)[C@@H]1CCCN1C(=O)[C@@H](N)CCC(=O)O)[C@@H](C)CC)C(=O)N[C@@H](Cc1ccc(O)cc1)C(=O)N[C@@H](CC(C)C)C(=O)O (H-EPQ[pY]EEIPIYL-OH)	-0.44
CC(=O)N[C@@H](Cc1ccc(OP(=O)(O)O)cc1)C(=O)N[C@H]1CCC(=O)N2CCC[C@@H](C(=O)NCc3cccc4ccccc34)N2C1=O	0.28

Requested field: log10(IC50). Item: CNC(=O)[C@H](CCC(=O)O)NC(=O)[C@H](CCC(=O)O)NC(=O)[C@H](Cc1ccc(OP(=O)(O)O)cc1)NC(C)=O (Ac-[pY]-Glu-Glu-NHMe)
1.23

Can you check CC(=O)N[C@@H](Cc1ccc(OP(=O)(O)O)cc1)C(=O)N[C@H]1CCC(=O)N2CCC[C@@H](C(=O)NC3CCc4ccccc43)N2C1=O (some centres not stated) next?
0.08

Can you check CC(=O)N[C@@H](Cc1ccc(OP(=O)(O)O)cc1)C(=O)N[C@H]1CCC(=O)N2CCC[C@@H](C(=O)N[C@H]3C[C@H](C(=O)O)c4ccccc43)N2C1=O next?
0.30

Taken from ChEMBL document CHEMBL1135110.
